Each recorded value in this set is attributed to PubChem BioAssay.

Test: probe aShh binding to arrayed compounds – biochemical, biotinylated probe, 635/667 nm fluorescence, primary screen (AID 1114);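 note: probe is biotin-labelled aShh protein from a stem cell growth factor screen; measures binding of labelled protein to compounds printed on the slide; score merges feature fluorescence at 667 nm with signal-to-noise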
Settings: small-molecule microarray, higher = more signal
Label scheme for composite z-score: lower than 0.4 is F, 0.4 and above is T.

Prompt line: Answer whether composite z-score of C=CCC(OC(C)=O)[C@@H]1[C@@H](N(Cc2cccc3ccccc23)C(=O)c2ccc(C)cc2)c2cc(OCCCO)ccc2N1C(=O)c1ccc2ccccc2c1 (stereo partly drawn) is greater than or equal to 0.4.
Response line: F

Prompt line: Answer whether composite z-score of C=CC[C@@]1(C(=O)NCC(O)CO)N=C(c2ccc(OCCCO)cc2)O[C@@H]1c1ccccc1 (stereo partly drawn) is greater than or equal to 0.4.
Response line: T

Prompt line: Answer whether composite z-score of CC(C)(C)OC(=O)CC[C@]1(C(=O)N2CCCCC2)N=C(c2ccc(OCCCO)cc2)O[C@H]1c1ccccc1CN=[N+]=[N-] is greater than or equal to 0.4.
Response line: T

Prompt line: Answer whether composite z-score of COc1ccc([Si](C)(C)[C@H]2[C@H](CCO)O[C@@]3(C(=O)N(Cc4cccc(N5CCOC5=O)c4)c4ccccc43)[C@@H]2C)cc1 is greater than or equal to 0.4.
Response line: F

Prompt line: Answer whether composite z-score of CN1C(=O)C2C=CC(C(O)c3ccc(F)cc3)N(N3CCCCC3)C2C1=O (stereo not drawn) is greater than or equal to 0.4.
Response line: T

Prompt line: Answer whether composite z-score of CCOC(=O)C1=CCC(c2cccc(Cl)c2)O1 (stereo not drawn) is greater than or equal to 0.4.
Response line: F

Prompt line: Answer whether composite z-score of C=CCN1C(=O)[C@@]2(O[C@@H](CCO)[C@H]([Si](C)(C)c3ccc(OC)cc3)[C@H]2C)c2cc(NC(=O)[C@H](C)O)ccc21 is greater than or equal to 0.4.
Response line: F

Prompt line: Answer whether composite z-score of C[N+](C)(C)CCCCNC(=O)[C@H]1C[C@H]2C(=O)NCC(=O)N2[C@H]1c1ccc(O)cc1 is greater than or equal to 0.4.
Response line: F

====

Test: small molecules captured by biotinylated probe aFST – biochemical, small-molecule microarray, fluorescence 635/667, stem cell growth factor project, primary screen (AID 1086);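 note: score merges 667 nm fluorescence with signal-to-noise of each printed compound spot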
Details: higher = more signal
Task for the reader: assign each of the following compounds its reported composite z-score.
Kindly provide the number alone.

Prompt line: Consider the compound shown here: C=CCNC(=O)[C@H]1[C@@H]2C(=O)O[C@@H](c3ccccc3)[C@@H](c3ccccc3)N2[C@@H](c2ccc(OCCO)cc2)[C@]12C(=O)N(C(=O)OCCOC)c1ccc(C#CC3=CCCCC3)cc12 What is its recorded composite z-score?
Response line: 0.344

Prompt line: Consider the compound shown here: COCCCNC(=O)[C@@]1(Cc2ccccc2I)c2ccccc2C(=O)N(Cc2ccccc2Cl)[C@H]1c1ccc(CO)cc1 What is its recorded composite z-score?
Response line: -0.211

Prompt line: Consider the compound shown here: CC1(C)[C@@H]2CC(C(O)C3C=CC4C(=O)N(c5ccccc5)C(=O)C4N3Nc3ccccc3F)=C[C@@H]1C2 (some centres not stated) What is its recorded composite z-score?
Response line: 0.955

Prompt line: Consider the compound shown here: COCC1=C([C@H](O)CCc2ccccc2)[C@H](CO)[C@@H]2C(=O)N(C)C(=O)[C@@H]2C1 What is its recorded composite z-score?
Response line: -0.0346

Prompt line: Consider the compound shown here: COc1cc(C(O)C2C=CC3C(=O)N(C)C(=O)C3N2NC(=O)OC(C)(C)C)cc(OC)c1OC (configuration not stated) What is its recorded composite z-score?
Response line: 0.935

Prompt line: Consider the compound shown here: C=CC[C@@]1(C(=O)NCC(O)CO)N=C(c2ccc(OCCCO)cc2)O[C@@H]1c1ccccc1 (some centres not stated) What is its recorded composite z-score?
Response line: 0.872

Prompt line: Consider the compound shown here: [N-]=[N+]=NCc1ccccc1[C@H]1OC(c2ccc(OCCCO)cc2)=N[C@@]1(Cc1ccccc1)C(N)=O What is its recorded composite z-score?
Response line: 1.24

====

Tested on: XIP peptide (Xip251-270) binding
Experiment: XIP fragment 251-270 binding compounds – biochemical, small-molecule microarray, fluorescence 635/667 nm, 0.1 µg/mL protein, primary screen (AID 1182)
Conditions: fluorescent protein binding, 635 nm, higher = more signal, called active from +8 up or from −8 down
Label scheme for composite z-score: lower than 0.4 is label 0, 0.4 and above is label 1.

Prompt line: Answer whether composite z-score of CCC[C@@H]1C[C@@]1(CCC)[C@@H](NC(=O)c1cccs1)c1ccc(Cl)cc1 is greater than or equal to 0.4.
Response line: label 0

Prompt line: Answer whether composite z-score of COc1ccc(CCNC(=O)[C@@H]2c3ccccc3C(=O)N(Cc3ccccc3C(F)(F)F)[C@H]2c2ccc(CO)cc2)cc1 is greater than or equal to 0.4.
Response line: label 0

Prompt line: Answer whether composite z-score of O=C1NC(=O)C2C1C=CC(C(O)c1ccc3c(c1)OCO3)N2Nc1ccc(Cl)cc1Cl (configuration not stated) is greater than or equal to 0.4.
Response line: label 1

Prompt line: Answer whether composite z-score of CC(=O)NCCCC[C@@H]1NC(=O)[C@@H]2C[C@H](C(=O)NCCCC[N+](C)(C)C)[C@H](c3cccc(OCCO)c3)N2C1=O is greater than or equal to 0.4.
Response line: label 0

Prompt line: Answer whether composite z-score of COC(=O)C(CC#Cc1ccc2c(c1)[C@]1(C(=O)N2)[C@H](c2ccc(O)cc2)N2[C@H](c3ccccc3)[C@H](c3ccccc3)OC(=O)[C@H]2[C@@H]1C(N)=O)C(=O)OC is greater than or equal to 0.4.
Response line: label 0

Prompt line: Answer whether composite z-score of O=C1c2ccccc2[C@](Cc2ccccc2I)(C(=O)NCC(F)(F)F)[C@H](c2ccc(CO)cc2)N1Cc1ccccc1 is greater than or equal to 0.4.
Response line: label 0

Prompt line: Answer whether composite z-score of COC(=O)C(CC#Cc1ccc2c(c1)[C@]1(C(=O)N2)[C@H](c2ccccc2OCCO)N2[C@H](c3ccccc3)[C@H](c3ccccc3)OC(=O)[C@H]2[C@@H]1C(=O)Nc1nc2ccccc2s1)C(=O)OC is greater than or equal to 0.4.
Response line: label 1

====

Molecular target: Pro-neuregulin-1, membrane-bound isoform (Homo sapiens) (UniProt Q02297)
Sequence (Q02297 whole entry, looked up, canonical isoform): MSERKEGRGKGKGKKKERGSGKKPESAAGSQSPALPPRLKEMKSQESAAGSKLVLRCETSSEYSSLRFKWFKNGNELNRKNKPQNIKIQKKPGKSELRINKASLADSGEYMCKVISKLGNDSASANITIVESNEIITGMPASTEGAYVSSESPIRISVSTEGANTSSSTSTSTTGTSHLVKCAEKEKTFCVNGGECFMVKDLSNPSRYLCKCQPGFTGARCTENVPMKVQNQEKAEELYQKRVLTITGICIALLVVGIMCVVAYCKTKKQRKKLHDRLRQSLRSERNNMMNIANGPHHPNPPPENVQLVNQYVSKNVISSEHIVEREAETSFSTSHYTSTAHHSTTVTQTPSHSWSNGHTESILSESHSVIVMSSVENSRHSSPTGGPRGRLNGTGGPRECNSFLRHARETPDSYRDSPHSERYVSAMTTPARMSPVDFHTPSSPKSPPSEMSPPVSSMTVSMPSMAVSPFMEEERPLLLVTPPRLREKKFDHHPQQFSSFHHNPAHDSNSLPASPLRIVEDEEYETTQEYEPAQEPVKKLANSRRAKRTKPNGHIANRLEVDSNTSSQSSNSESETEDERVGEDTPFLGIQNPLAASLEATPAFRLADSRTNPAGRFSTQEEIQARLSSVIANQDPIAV
Test: small molecules binding neuregulin-1 protein – biochemical, small-molecule microarray, fluorescence 635/667, psychiatric disease protein project, primary screen (AID 1075);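 note: score combines 667 nm spot fluorescence with signal to noise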
Conditions: NRG1 binding, 635 nm fluorescence, higher = more signal
Field: class. Source value: composite z-score. Ranges: low end = under 0.3, middle = from 0.3 up to 1, high end = 1 and over

Prompt line: Returns: class label. Input: COCC1=C([C@H](O)CCc2ccccc2)[C@H](CO)[C@@H]2C(=O)N(C)C(=O)[C@@H]2C1
Response line: middle

Prompt line: Returns: class label. Input: CC(C)C[C@@H]1NC(=O)[C@@H]2C[C@H](C(=O)NCc3ccc(F)cc3)[C@H](c3ccc(O)cc3)N2C1=O
Response line: middle

Prompt line: Returns: class label. Input: CC1C=C(CCCO)C=C(C(=O)OCCS(C)(=O)=O)C(C(=O)OCCS(C)(=O)=O)=CN1Cc1cccc(OC(F)(F)F)c1 (stereo not drawn)
Response line: high end

Prompt line: Returns: class label. Input: O=C1O[C@@H](c2ccccc2)[C@@H](c2ccccc2)N2[C@@H](c3ccc(O)cc3)[C@]3(C(=O)Nc4ccc(C#CC5(O)CCCCCC5)cc43)[C@@H](C(=O)N3CCN(c4ncccn4)CC3)[C@H]12
Response line: high end

Prompt line: Returns: class label. Input: [N-]=[N+]=Nc1ccccc1[C@H]1OC(c2ccc(OCCCO)cc2)=N[C@@]1(Cc1ccccc1)C(=O)NCc1ccccc1
Response line: middle

Prompt line: Returns: class label. Input: COC(=O)c1ccc(OC)c(/C=C\CC(CCc2ccccc2)OC(=O)c2ccncc2)c1 (stereo not drawn)
Response line: low end

Prompt line: Returns: class label. Input: C[N+](C)(C)CCCCCCNC(=O)[C@@H]1C[C@@H]2C(=O)NCC(=O)N2[C@@H]1c1cccc(OCCO)c1
Response line: low end

Prompt line: Returns: class label. Input: C=CC[C@]1(C(=O)N2CCOCC2)N=C(c2ccc(OCCCO)cc2)O[C@H]1c1ccccc1CN=[N+]=[N-]
Response line: high end

Prompt line: Returns: class label. Input: NC(=O)[C@@H]1[C@H]2C(=O)O[C@H](c3ccccc3)[C@H](c3ccccc3)N2[C@H](c2ccccc2OCCO)[C@@]12C(=O)Nc1ccc(C#CCCO)cc12
Response line: middle

Prompt line: Returns: class label. Input: CC(=O)NCCCC[C@@H]1NC(=O)[C@H]2C[C@@H](C(=O)NCCCCCN)[C@@H](c3cccc(OCCO)c3)N2C1=O
Response line: high end

Prompt line: Returns: class label. Input: C=CCC(OC(C)=O)[C@@H]1[C@@H](N(Cc2ccc(-c3ccccc3)cc2)C(=O)c2cccc3ccccc23)c2cc(OCCCO)ccc2N1C(=O)c1ccc2ccccc2n1 (stereo partly drawn)
Response line: low end

Prompt line: Returns: class label. Input: O=C1OCC=C[C@H]2OC34C=CCN(CCN5CCOCC5)C(=O)[C@H]3N(CCCCCO)C(=O)[C@@H]4[C@@H]12 (stereo partly drawn)
Response line: low end
